experiment: chemical genetic growth profiling, strain panel (AID 1159580);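 further: tested at 20 µM; growth read once vehicle control cultures reached saturation at 30 °C; 1 = growth at the plate median or of vehicle wells; lower values mean less growth of the strain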; details: S. cerevisiae deletion strains, growth OD, locus YGR252W, strain gcn5, hits give low values
In all, about 5,500 compounds went through this assay and about 2,000 (36%) were called active. Roughly 18% stayed inconclusive and do not appear here. The list shows a part of the results.
Listing: normalized growth of selected compounds
I'd appreciate a reply containing only the number, no unit.

| COMPOUND | REPORTED RESULT |
| --- | --- |
| NCCc1cnc[nH]1 | 1.04 |
| C[C@]12CCC(=O)C=C1C=CC1C2CC[C@@]2(C)C1CC[C@@]2(O)CCC(=O)O (stereo partly drawn) | 1.07 |
| CN(C)CCOC(c1ccc(Cl)cc1)c1ccccn1 (stereo not drawn) | 0.947 |
| C=C[C@@](C)(O)CCC1C(=C)C[C@H](OC(C)=O)C2C(C)(C)CCCC12C (stereo partly drawn) | 1.09 |
| COc1ccc2c(c1)OC/C(=C/c1ccc(OC)c(OC)c1)C2=O | 0.799 |
| CC(C)NCC(O)COc1cccc2[nH]ccc12 (stereo not drawn) | 1.16 |
| CC[C@H]1OC(=O)[C@H](C)[C@@H](O[C@H]2C[C@@](C)(OC)[C@@H](O)[C@H](C)O2)[C@H](C)[C@@H](O[C@@H]2O[C@H](C)C[C@H](N(C)C)[C@H]2O)[C@](C)(OC)C[C@@H](C)C(=O)[C@H](C)[C@@H](O)[C@]1(C)O | 0.932 |
| CCC1(O)CC(OC2CC(N(C)C)C(OC3CC(O)C(OC4CCC(=O)C(C)O4)C(C)O3)C(C)O2)c2c(cc3c(c2O)C(=O)c2c(O)cccc2C3=O)C1C(=O)OC (stereo not drawn) | 1.03 |
| CCn1cc(C(=O)O)c(=O)c2cc(F)c(N3CCNCC3)nc21 | 1.01 |
| CCN1CCCC(OC(=O)C(c2ccccc2)c2ccccc2)C1 (stereo not drawn) | 0.998 |

Q. Would you mind telling me what normalized growth value was observed for CC[C@@]1(O)C[C@H](O)c2c(cc3c(c2O)C(=O)c2c(O)ccc(O)c2C3=O)[C@H]1C(=O)OC ?
A. 0.832

Q. State the recorded normalized growth for this entry: COC(=O)/C=C/C(C)=C/C=C/C(C)=C/C=C/C=C(C)/C=C/C=C(C)/C=C/C(=O)O
A. 0.983

Q. Form field: reported normalized growth of C=C1CCC2[C@](C)(CO)[C@H](O)CC[C@@]2(C)[C@@H]1C/C=C1/C(=O)OC[C@H]1O (stereo partly drawn)
A. 1.01

Q. I would be grateful if you could share the reported normalized growth for CC[C@@]1(O)C[C@H](O[C@H]2C[C@H](N(C)C)[C@H](O)[C@H](C)O2)c2c(cc3c(c2O)C(=O)c2c(O)ccc(O)c2C3=O)[C@H]1C(=O)OC .
A. 0.225

Q. Look up normalized growth: CN1C2CCC1CC(OC(c1ccccc1)c1ccccc1N)C2 (stereo not drawn)
A. 1

Q. Item COc1ccc(-c2coc3cc(OC)ccc3c2=O)cc1 has what recorded normalized growth?
A. 0.851

Q. Which normalized growth value is on record for NCCCS(=O)(=O)O ?
A. 0.908

Q. Fill in: normalized growth of CCn1cc(C(=O)O)c(=O)c2cc(F)c(N3CCNC(C)C3)c(F)c21 (stereo not drawn) is ___
A. 0.991

Q. I'd like to know its normalized growth. The compound in question is CC1COc2c(N3CCN(C)CC3)c(F)cc3c(=O)c(C(=O)O)cn1c23 (stereo not drawn)
A. 1.01
